Where do the numbers come from? From PubChem BioAssay AID743059.

Biological target: Nuclear hormone receptor DAF-12 (Heterodera glycines)
Test: hgDAF-12 reporter activation EC50 – cell-based, luminescence, HEK293, dose response (AID 743059);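 further: agonist potency for compounds that raise hgDAF-12 reporter luminescence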
Settings: HEK293 hgDAF-12 reporter, luciferase luminescence
The source made the active and inactive calls.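 How the source made its calls: active means EC50 at or below 10 µM; inactive means EC50 above 10 µM.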
TEST_READOUT: EC50

Past entries and their recorded results:
1) CC(=Nc1ccccc1)c1sc2ccccc2c1O	> 67.6 µM (inactive)
2) CN(C)CCNc1ncnc2c1ncn2[C@H]1CN(Cc2cccnc2)C[C@@H](CO)O1	> 67.5 µM (inactive)
3) CCCn1c(=NC(=O)c2ccco2)c(C(=O)OCC)cc2c(=O)n3ccccc3nc21	> 67.5 µM (inactive)

Exercise: Please indicate EC50 recorded for `CCc1ccc2oc(-c3cccc(N)c3)nc2c1`
Key: > 67.6 µM (inactive)

Exercise: Please indicate EC50 recorded for `O=C(NC1CCC1)c1ccc(C#CC2CC2)cn1`
Key: > 67.5 µM (inactive)

====

Molecular target: Nuclear hormone receptor DAF-12 (Heterodera glycines)
Assay: hgDAF-12 reporter activation EC50 – cell-based, luminescence, HEK293, dose response (AID 743059);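 further: agonist potency for compounds that raise hgDAF-12 reporter luminescence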
Details: HEK293 hgDAF-12 reporter, luciferase luminescence
Calls of active or inactive are those of the source.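 Rule for the calls: active = EC50 at or below 10 µM; inactive = EC50 above 10 µM.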
Outcome field: choose from active, inactive

1) COCCNc1nc(-c2cc3ccccc3o2)cs1	inactive
2) CCS(=O)(=O)Nc1cc(-c2nc3cccnc3s2)ccc1C	inactive
3) CCOC(=O)c1cnc(SCc2ccccc2)nc1N	inactive

Exercise: Please share the test call associated with `Cc1cc(C(=O)CSc2ncccn2)c(C)n1Cc1ccco1` .
Key: inactive

Exercise: Please share the test call associated with CCOC(=O)c1sc2nc3c(cc2c1N)COC(C)(CC)C3 (stereo unspecified) .
Key: inactive

Exercise: Please share the test call associated with `Cc1ccc(/C(N)=N/OC(=O)c2ccco2)cc1` .
Key: inactive

====

Target: Nuclear hormone receptor DAF-12 (Heterodera glycines)
Assay: hgDAF-12 reporter activation EC50 – cell-based, luminescence, HEK293, dose response (AID 743059);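 further: agonist potency for compounds that raise hgDAF-12 reporter luminescence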
Details: HEK293 hgDAF-12 reporter, luciferase luminescence
Active and inactive are the calls of the source.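 Rule for the calls: active = EC50 at or below 10 µM; inactive = EC50 above 10 µM.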
Outcome field: choose from yes (active), no (inactive)

Use the examples below as a reference point.
1) Nc1c(-c2cccs2)cnc2c(-c3ccc(F)cc3)cnn12	no
2) Cc1ccc(NC(=S)N/C(=N/S(=O)(=O)c2ccccc2)c2ccccc2)cc1	no
3) Cc1ccc(NC(=S)NC(=O)C2CCCC2)c(Br)c1	no
4) Fc1ccccc1CSc1ncnc2c1ncn2C1CCCCO1 (stereo not drawn)	no
5) CCCS(=O)(=O)NCc1cn2c(C)csc2n1	no
6) N=C1/C(=C/c2ccc(OCc3ccccc3F)cc2)C(=O)N=C2SC(CC(=O)N3CCOCC3)=NN12	no

Okay, next one:
Exercise: Please share the test call associated with `Cc1ccnc(NC(=O)CCNS(=O)(=O)c2ccc(C)c(C)c2)c1` .
Key: no

====

Target: Nuclear hormone receptor DAF-12 (Heterodera glycines)
Assay: hgDAF-12 reporter activation EC50 – cell-based, luminescence, HEK293, dose response (AID 743059);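 further: agonist potency for compounds that raise hgDAF-12 reporter luminescence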
Conditions: HEK293 hgDAF-12 reporter, luciferase luminescence
Active and inactive are the calls of the source.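 How the source made its calls: active means EC50 at or below 10 µM; inactive means EC50 above 10 µM.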
// reported EC50 per item

1) COC1=C/C(=C/c2c(N)n3nc(-c4ccc(C)cc4)sc3nc2=O)C=CC1=O	> 67.5 µM (inactive)
2) Nc1c2c(nc3sc4c(c13)CCCC4)CCCCC2	> 67.6 µM (inactive)
3) CC(=Nc1ccc(Cl)cc1N)c1c(O)cc(C)oc1=O	> 67.6 µM (inactive)

Exercise: Please indicate EC50 recorded for `COc1cccc(/C=C/c2ccc3cccc(O)c3n2)c1`
Key: > 67.5 µM (inactive)

Exercise: Please indicate EC50 recorded for `c1ccc([C@H]2CN3C(=N2)Sc2ccccc23)cc1`
Key: > 67.1 µM (inactive)

====

Biological target: Nuclear hormone receptor DAF-12 (Heterodera glycines)
Experiment: hgDAF-12 reporter activation EC50 – cell-based, luminescence, HEK293, dose response (AID 743059);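 further: agonist potency for compounds that raise hgDAF-12 reporter luminescence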
Conditions: HEK293 hgDAF-12 reporter, luciferase luminescence
The source made the active and inactive calls.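 Rule for the calls: active = EC50 at or below 10 µM; inactive = EC50 above 10 µM.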
Outcome field: choose from T (active), F (inactive)

Use the examples below as a reference point.
1. Cc1ccnc(NC(=O)C2CCN(S(=O)(=O)c3c(C)c(C)cc(C)c3C)CC2)c1	F
2. FC(F)(F)c1cc(Cl)c2nc(-c3ccccc3)cn2c1	F
3. CCCCCc1nnc(NC(=O)C2=COCCO2)s1	F
4. CN(C)c1cccc(-c2cnc(N3CCC(C(N)=O)CC3)s2)c1	F

Exercise: Please share the test call associated with `Cc1ccc(S(=O)(=O)/N=C(/NC(=S)Nc2ccccc2)c2ccccc2)cc1` .
Key: F

Exercise: Please share the test call associated with `OCc1ccc(N=Nc2ccccc2)cc1` .
Key: F

Exercise: Please share the test call associated with `Oc1cccc(/C=C/c2ccc3cccc(O)c3n2)c1` .
Key: F

Exercise: Please share the test call associated with `Cc1cc(N=Nc2ccc3ccccc3c2)ccc1O` .
Key: F

Exercise: Please share the test call associated with `c1ccc(CN=C2Nc3ccccc3CS2)nc1` .
Key: F

Exercise: Please share the test call associated with `O=[N+]([O-])c1cccnc1NCCNc1ncc(C(F)(F)F)cc1Cl` .
Key: F

====

Biological target: Nuclear hormone receptor DAF-12 (Heterodera glycines)
Experiment: hgDAF-12 reporter activation EC50 – cell-based, luminescence, HEK293, dose response (AID 743059);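 further: agonist potency for compounds that raise hgDAF-12 reporter luminescence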
Conditions: HEK293 hgDAF-12 reporter, luciferase luminescence
Active and inactive are the calls of the source.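 How the source made its calls: active means EC50 at or below 10 µM; inactive means EC50 above 10 µM.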
Outcome field: choose from active, inactive

Use the examples below as a reference point.
1. COC(=O)C1C(=O)c2c([nH]c(C(=O)OC3CCCCC3)c2C)CC1C (stereo unspecified)	inactive
2. CCN(CC)S(=O)(=O)c1cc(C(=O)OCC(=O)Nc2ccc(-c3nc4ccc(C)cc4s3)cc2)ccc1F	inactive
3. CC(C)C(N)c1csc(Nc2nncc3ccccc23)n1 (stereo unspecified)	inactive
4. COc1ccccc1-c1noc(-c2cccs2)n1	inactive
5. Clc1ccc(-c2cn3cc(Cl)ccc3n2)cc1	inactive

Exercise: Please share the test call associated with `Clc1ccc(Nc2ccc3ccccc3n2)cc1` .
Key: inactive

Exercise: Please share the test call associated with `COc1ccc(Oc2cnn(-c3ccccc3)c(=O)c2Br)cc1` .
Key: inactive

====

Biological target: Nuclear hormone receptor DAF-12 (Heterodera glycines)
Assay: hgDAF-12 reporter activation EC50 – cell-based, luminescence, HEK293, dose response (AID 743059);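 further: agonist potency for compounds that raise hgDAF-12 reporter luminescence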
Conditions: HEK293 hgDAF-12 reporter, luciferase luminescence
Active and inactive are the calls of the source.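 The calls were made as follows: active = EC50 at or below 10 µM; inactive = EC50 above 10 µM.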
Outcome field: choose from label 1 (active), label 0 (inactive)

1) Cc1cc(C)n2c(NC3CCCC3)c(-c3cc4ccccc4o3)nc2n1	label 0
2) Cc1ccc(Nc2ncccc2C(N)=O)cc1	label 0
3) O=C(Nc1ccn(Cc2ccccc2)n1)c1n[nH]c([N+](=O)[O-])c1Cl	label 0
4) NC(=Nc1ccccc1)NC(=O)c1nc(Cl)c(N)nc1N	label 0
5) Cc1ccc(OCc2ccc(Br)cc2)c([N+](=O)[O-])n1	label 0
6) CCOC(=O)c1cn[nH]c1NC(=S)Nc1ccccc1	label 0
7) O=c1[nH]cnc2cc(-c3ccccc3)sc12	label 0
8) Cc1nc2nc(-c3cccs3)[nH]c2cc1Br	label 0

Exercise: Please share the test call associated with `Cc1ccc2oc(-c3cccc(N)c3)nc2c1` .
Key: label 0

Exercise: Please share the test call associated with `COC1=C/C(=C/c2c(O)c(C#N)c3ccccn23)C=CC1=O` .
Key: label 0

Exercise: Please share the test call associated with `O=C(NCCc1ccccc1)c1cc(-c2ccco2)on1` .
Key: label 1

Exercise: Please share the test call associated with `CCOC(=O)c1cnc(SCCc2ccccc2)nc1N` .
Key: label 0

Exercise: Please share the test call associated with `c1ccc(CCSc2nccn2-c2ccccc2)cc1` .
Key: label 0

Exercise: Please share the test call associated with `Cn1c(SCc2ccccc2F)nc2cccnc21` .
Key: label 0

Exercise: Please share the test call associated with `COc1ccc(Nc2nccc(-c3cccc(N)c3)n2)cc1` .
Key: label 0

Exercise: Please share the test call associated with `O=C(Nc1ccc(Cl)cn1)c1cc2ccccc2o1` .
Key: label 0

====

Biological target: Nuclear hormone receptor DAF-12 (Heterodera glycines)
Test: hgDAF-12 reporter activation EC50 – cell-based, luminescence, HEK293, dose response (AID 743059);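 further: agonist potency for compounds that raise hgDAF-12 reporter luminescence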
Settings: HEK293 hgDAF-12 reporter, luciferase luminescence
The source made the active and inactive calls.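 Rule for the calls: active = EC50 at or below 10 µM; inactive = EC50 above 10 µM.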
Outcome field: choose from active, inactive

1) CC(C)C[C@H](NC(=O)OCC1c2ccccc2-c2ccccc21)C(=O)O	inactive
2) Clc1ccc(Nc2nc(-c3cccs3)cs2)nc1	inactive
3) O=C(Nc1ccccc1O)c1ccc(NS(=O)(=O)c2cccc3cccnc23)cc1	active
4) Cc1ccc(N/N=C(\C#N)C(=N)N2CCCCCC2)cc1	inactive
5) Cc1nc2sc(-c3ccccc3)nn2c(=O)c1Br	inactive

Exercise: Please share the test call associated with `COc1ccc2[nH]c(C(=O)Nc3cccc(C)n3)cc2c1` .
Key: inactive

Exercise: Please share the test call associated with `Cc1ccc(/C=N/N=C/c2ccc(C)s2)s1` .
Key: inactive

Exercise: Please share the test call associated with `CCCSc1nsc(NC(=O)CC)n1` .
Key: inactive

Exercise: Please share the test call associated with `C#CCNC(=O)C[C@H]1C[C@@]2(C(=O)OC)C(=C[C@H](C(C)C)O[C@@H]2C2CC2)N(CCCCCCCC)C1=O` .
Key: inactive

Exercise: Please share the test call associated with `Cn1c(NCc2c[nH]c3ccccc23)nc2ccccc21` .
Key: inactive

Exercise: Please share the test call associated with `Clc1ccccc1Nc1nnc(-c2ccncc2)s1` .
Key: inactive

Exercise: Please share the test call associated with `CCn1c(O)c(C=Nc2ccccc2)sc1=S` .
Key: inactive

Exercise: Please share the test call associated with `COC(=O)c1sc2nc3c(cc2c1N)CCCC3` .
Key: inactive

Exercise: Please share the test call associated with `Cc1ccc(-c2csc(NC(=O)/C=C/c3ccco3)c2C(=O)O)cc1` .
Key: inactive
